Assignment: determine reported OD450 for the given binders.
target: T1, human MSLN-R3-his protein (human, UniProt Q13421 487-598); assay: ELISA on coated MSLN-R3; antibody 100 nM
T1 construct: Region 3 of human mesothelin, made in HEK293E cells, His-tagged; also called human MSLN-R3 protein; hMSLN-R3-his; not shown: His tag
T1 sequence (Q13421 495-606): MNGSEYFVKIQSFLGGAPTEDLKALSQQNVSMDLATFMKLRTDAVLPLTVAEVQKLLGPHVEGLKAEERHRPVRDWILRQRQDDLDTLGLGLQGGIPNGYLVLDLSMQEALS
Please respond with the number in OD450 and leave the unit unwritten.

**Q:** Name the recorded OD450 for S009-F8-4.5 (antibody, human IgG1, kappa, V domains shown) VH: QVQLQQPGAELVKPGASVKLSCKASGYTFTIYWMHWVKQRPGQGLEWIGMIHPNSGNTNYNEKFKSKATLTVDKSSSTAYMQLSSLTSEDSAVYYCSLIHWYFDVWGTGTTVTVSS VL: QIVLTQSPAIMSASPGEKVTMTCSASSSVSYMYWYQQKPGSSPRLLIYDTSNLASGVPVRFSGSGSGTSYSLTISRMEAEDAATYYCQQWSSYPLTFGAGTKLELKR .
**A:** 0.12

**Q:** Given S009-F8-31.22 (antibody, human IgG1, kappa, V domains shown) VH: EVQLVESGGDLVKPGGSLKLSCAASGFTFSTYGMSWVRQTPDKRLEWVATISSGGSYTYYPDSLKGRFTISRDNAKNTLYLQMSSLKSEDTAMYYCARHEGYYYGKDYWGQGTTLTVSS VL: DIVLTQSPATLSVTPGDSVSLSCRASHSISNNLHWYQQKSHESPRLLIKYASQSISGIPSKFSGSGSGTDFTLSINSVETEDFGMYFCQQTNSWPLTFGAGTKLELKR , state its recorded OD450.
**A:** 0.13
